system: Human immunodeficiency virus 1; experiment: Inhibition of HIV1 RNase H activity assessed as residual enzyme activity by poly(rA)n.oligo(dT)12-18-directed incorporation of [3H]dTTP into DNA at 100 uM relative to control
Below, each of the compounds is paired with its reported Activity value.
Reported Property: Activity (%)

Substance Smiles	Measure Unit	Observed Result
CCCCCCCCCCCCCCCC(=O)OC[C@H](CO[C@@H]1O[C@H](CO)[C@H](O)[C@H](O)[C@H]1O)OC(=O)CCCCCCCCCCCCCCC	%	100
CCCCCCCC/C=C\CCCCCCCC(=O)OC[C@H](CO[C@@H]1O[C@H](CO)[C@H](O)[C@H](O)[C@H]1O)OC(=O)CCCCCCCCCCCCCCC	%	100
CCCCC/C=C\C/C=C\CCCCCCCC(=O)OC[C@H](CO[C@H]1O[C@H](CS(=O)(=O)O)[C@@H](O)[C@H](OC(=O)CCCCCCCCCCCCCCC)[C@H]1OC(=O)CCCCCCCCCCCCCCC)OC(=O)CCCCCCCCCCCCCCC	%	100

---

tested on: Human immunodeficiency virus 1; assay: Inhibition of HIV1 RNase H activity assessed as residual enzyme activity by poly(rA)n.oligo(dT)12-18-directed incorporation of [3H]dTTP into DNA at 100 uM relative to control
Below, each of the compounds is paired with its reported Activity value.
Reported Property: Activity (%)

Substance Smiles	Measurement Target	Reported Property	Measure Unit	Observed Result
CCCCCCCCCCCCCCCC(=O)OC[C@H](CO[C@H]1O[C@H](CS(=O)(=O)O)[C@@H](O)[C@H](O)[C@H]1O)OC(=O)CCCCCCCCCCCCCCC	Human immunodeficiency virus 1	Activity	%	45
CCCCCCCC/C=C\CCCCCCCC(=O)OC[C@H](CO[C@H]1O[C@H](CS(=O)(=O)O)[C@@H](O)[C@H](O)[C@H]1O)OC(=O)CCCCCCCCCCCCCCC	Human immunodeficiency virus 1	Activity	%	66
CCCCC/C=C\C/C=C\CCCCCCCC(=O)OC[C@H](CO[C@@H]1O[C@H](CO[C@H]2O[C@H](CO)[C@H](O)[C@H](OC(=O)CCCCCCCCCCCCCCC)[C@H]2O)[C@H](O)[C@H](O)[C@H]1O)OC(=O)CCCCCCCCCCCCCCC	Human immunodeficiency virus 1	Activity	%	100
CCCCC/C=C\C/C=C\CCCCCCCC(=O)OC[C@H](CO[C@@H]1O[C@H](CO)[C@H](O)[C@H](O)[C@H]1O)OC(=O)CCCCCCCCCCCCCCC	Human immunodeficiency virus 1	Activity	%	100
CCCCC/C=C\C/C=C\CCCCCCCC(=O)OC[C@H](CO[C@H]1O[C@H](CS(=O)(=O)O)[C@@H](O)[C@H](O)[C@H]1O)OC(=O)CCCCCCCCCCCCCCC	Human immunodeficiency virus 1	Activity	%	100

---

A short record of IC50 observed with UniProt Q72547 follows.

Substance Smiles	Measurement Target	Qualifier Operator	IC50 / µM
CCCCCCCC/C=C\CCCCCCCC(=O)OC[C@H](CO[C@H]1O[C@H](CS(=O)(=O)O)[C@@H](O)[C@H](O)[C@H]1O)OC(=O)CCCCCCCCCCCCCCC	UniProt Q72547	=	0.024
CCCCC/C=C\C/C=C\CCCCCCCC(=O)OC[C@H](CO[C@H]1O[C@H](CS(=O)(=O)O)[C@@H](O)[C@H](O)[C@H]1O)OC(=O)CCCCCCCCCCCCCCC	UniProt Q72547	=	0.077
CCCCC/C=C\C/C=C\CCCCCCCC(=O)OC[C@H](CO[C@H]1O[C@H](CS(=O)(=O)O)[C@@H](O)[C@H](OC(=O)CCCCCCCCCCCCCCC)[C@H]1OC(=O)CCCCCCCCCCCCCCC)OC(=O)CCCCCCCCCCCCCCC	UniProt Q72547	=	2.95
OC[C@@H](O)CO[C@@H]1O[C@H](CO)[C@H](O)[C@H](O)[C@H]1O	UniProt Q72547	>	100
OC[C@@H](O)CO[C@H]1O[C@H](CO)[C@@H](O)[C@H](O)[C@H]1O	UniProt Q72547	>	100
CCCCCCCCCCCCCCCC(=O)OC[C@H](CO[C@@H]1O[C@H](CO)[C@H](O)[C@H](O)[C@H]1O)OC(=O)CCCCCCCCCCCCCCC	UniProt Q72547	>	100
CCCCC/C=C\C/C=C\CCCCCCCC(=O)OC[C@H](CO[C@@H]1O[C@H](CO[C@H]2O[C@H](CO)[C@H](O)[C@H](OC(=O)CCCCCCCCCCCCCCC)[C@H]2O)[C@H](O)[C@H](O)[C@H]1O)OC(=O)CCCCCCCCCCCCCCC	UniProt Q72547	=	99.4
OC[C@@H](O)CO[C@@H]1O[C@H](CO[C@H]2O[C@H](CO)[C@H](O)[C@H](O)[C@H]2O)[C@H](O)[C@H](O)[C@H]1O	UniProt Q72547	>	100
CCCCCCCCCCCCCCCC(=O)OC[C@H](CO[C@H]1O[C@H](CS(=O)(=O)O)[C@@H](O)[C@H](O)[C@H]1O)OC(=O)CCCCCCCCCCCCCCC	UniProt Q72547	=	0.112
O=S(=O)(O)C[C@H]1O[C@H](OC[C@H](O)CO)[C@H](O)[C@@H](O)[C@@H]1O	UniProt Q72547	=	75
CCCCCCCC/C=C\CCCCCCCC(=O)OC[C@H](CO[C@@H]1O[C@H](CO)[C@H](O)[C@H](O)[C@H]1O)OC(=O)CCCCCCCCCCCCCCC	UniProt Q72547	=	65
CCCCC/C=C\C/C=C\CCCCCCCC(=O)OC[C@H](CO[C@@H]1O[C@H](CO)[C@H](O)[C@H](O)[C@H]1O)OC(=O)CCCCCCCCCCCCCCC	UniProt Q72547	=	38
